Task for the reader: assign each of the following compounds its reported IC50.
# test_target: BACE1 (Homo sapiens)
# Sequence (P56817 46-501, species assumed): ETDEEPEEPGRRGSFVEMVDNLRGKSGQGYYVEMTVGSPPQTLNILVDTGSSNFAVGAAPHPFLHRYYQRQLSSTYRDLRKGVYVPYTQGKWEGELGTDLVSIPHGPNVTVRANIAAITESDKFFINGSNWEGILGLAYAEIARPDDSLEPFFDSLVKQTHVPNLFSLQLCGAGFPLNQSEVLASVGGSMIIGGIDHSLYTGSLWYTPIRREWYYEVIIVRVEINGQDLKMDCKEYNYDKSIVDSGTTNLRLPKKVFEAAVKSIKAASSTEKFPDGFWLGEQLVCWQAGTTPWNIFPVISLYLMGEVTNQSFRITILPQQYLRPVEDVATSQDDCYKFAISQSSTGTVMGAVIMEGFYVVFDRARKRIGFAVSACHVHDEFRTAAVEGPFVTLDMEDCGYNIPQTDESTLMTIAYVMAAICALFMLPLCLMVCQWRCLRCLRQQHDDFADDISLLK
# protocol_details: In vitro enzymatic BACE FRET (fluorescence resonance energy transfer) assay
# Assay type: biochemical
Numbers only, in nM.

# compound, IC50 (nM)
measured = [
    ("C=CC[C@H](NC(=O)[C@@H](CC)OC)[C@H](O)CN[C@H]1CC2(CCC2)Oc2ncc(CC(C)(C)C)cc21 [Example 146]", 565),
    ("CCC[C@H](NC(C)=O)[C@H](O)CN[C@H]1C[C@@]2(CC[C@@H]2O)Oc2ncc(CC(C)(C)C)cc21 [Example 54]", 18600),
    ("C=CC[C@H](NC(=O)c1cncn1C)[C@H](O)CN[C@H]1CC2(CCC2)Oc2ncc(CC(C)(C)C)cc21 [Example 131]", 372),
]

Alright, here's another compound for you.
Supply measured IC50 of CCC[C@H](NC(C)=O)[C@H](O)CN[C@H]1CC2(CCC2)Oc2ncc(CC(C)(C)C)cc21 [Example 43] in your reply. 83
